src = patent US12625142B2

Assay: competition binding assay for cardiolipin with fluorescent probe I and CL-DOPC liposomes (25:75 mol %)
Details: pH = 7.4; 20 mM HEPES buffer; 2.5 μM CL, 5 μM I; means ± S.D. from 3 independent experiments
Structures can show the parent of a compound that is named as a salt.
Class (required): determined from EC50; valid ranges are class 0: < 7 µM; class 1: ≥ 7 µM and < 1000 µM; class 2: ≥ 1000 µM

Query: Category of CCCCCCCCC[P+](c1ccccc1)(c1ccccc1)c1ccccc1.[Br-] [Example 13, Nonyltriphenylphosphonium bromide] , please.
Reply: class 1

Query: Category of COc1cccc2c1C(=O)c1c(O)c3c(c(O)c1C2=O)C[C@@](O)(C(C)=O)C[C@@H]3O[C@H]1C[C@H](N)[C@H](O)[C@H](C)O1 [Example 6, hydrochloride] , please.
Reply: class 0

Query: Category of [Ca+2].[Cl-].[Cl-] [Example 3, Calcium chloride] , please.
Reply: class 2

Query: Category of [Cl-].[Cl-].[Mg+2] [Example 4, Magnesium chloride] , please.
Reply: class 2

Query: Category of Cl.N [Example 2, Ammonium chloride] , please.
Reply: class 2

Query: Category of [H]/N=C(/N)N[C@H]1[C@H](O)[C@@H](O)[C@H](O[C@@H]2O[C@@H](C)[C@](O)(C=O)[C@H]2O[C@@H]2O[C@@H](CO)[C@H](O)[C@@H](O)[C@@H]2NC)[C@@H](N/C(N)=N\[H])[C@@H]1O , please.
Reply: class 1

Query: Category of NC[C@H]1O[C@H](O[C@H]2[C@H](O)[C@@H](O[C@H]3O[C@H](CO)[C@@H](O)[C@H](N)[C@H]3O)[C@H](N)C[C@@H]2N)[C@H](N)C[C@@H]1O , please.
Reply: class 0

Query: Category of CCCCCCCCCCCC[N+](C)(C)C.[Cl-] [Example 14, Dodecyltrimethylammonium chloride] , please.
Reply: class 1
